All figures here come from patent US6136831A.

Entries annotated with measured IC50
# SYSTEM: COX-2 (Ovis aries)
# Construct: purchased Cayman Chemical Co
# Sequence (P79208 17-603): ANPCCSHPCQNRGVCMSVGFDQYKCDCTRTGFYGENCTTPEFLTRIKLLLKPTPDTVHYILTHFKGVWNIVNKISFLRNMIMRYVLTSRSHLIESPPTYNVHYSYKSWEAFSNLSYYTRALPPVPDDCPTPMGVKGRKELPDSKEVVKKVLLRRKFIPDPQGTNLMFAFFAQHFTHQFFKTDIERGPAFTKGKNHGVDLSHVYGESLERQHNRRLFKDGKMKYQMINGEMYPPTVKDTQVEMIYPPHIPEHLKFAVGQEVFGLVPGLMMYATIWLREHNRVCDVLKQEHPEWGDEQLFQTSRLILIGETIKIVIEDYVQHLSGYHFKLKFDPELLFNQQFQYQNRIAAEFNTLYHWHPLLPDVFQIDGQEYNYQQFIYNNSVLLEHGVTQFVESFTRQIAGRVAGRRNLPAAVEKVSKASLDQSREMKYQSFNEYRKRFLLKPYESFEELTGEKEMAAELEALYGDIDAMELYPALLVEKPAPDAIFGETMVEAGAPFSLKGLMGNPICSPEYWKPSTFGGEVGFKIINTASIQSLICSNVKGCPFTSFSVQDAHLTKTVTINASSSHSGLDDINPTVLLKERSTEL
# TEST DETAILS: Inhibitory Activity on COX-2 (Assay Example 5)
# Assay type: biochemical
# STUDY CONDITIONS: Table 4; read-out: COX Inhibiting Activity IC50, COX-2

STRUCTURE SMILES STRING: NS(=O)(=O)c1ccc(-n2nc(C(F)(F)F)cc2-c2nc3cccc(F)c3s2)cc1
SYSTEM: COX-2 (Ovis aries)
IC50 (nM): 160
//
STRUCTURE SMILES STRING: Cc1ccc2nc(-c3cc(C(F)(F)C(F)(F)F)nn3-c3ccc(S(C)(=O)=O)cc3)sc2c1
SYSTEM: COX-2 (Ovis aries)
IC50 (nM): 370
//
STRUCTURE SMILES STRING: NS(=O)(=O)c1ccc(-n2nc(C(F)F)cc2-c2nc3c(F)cccc3s2)cc1
SYSTEM: COX-2 (Ovis aries)
IC50 (nM): 240
//
STRUCTURE SMILES STRING: Cc1ccc2nc(-c3cc(C(F)(F)C(F)(F)F)nn3-c3ccc(S(N)(=O)=O)cc3)sc2c1
SYSTEM: COX-2 (Ovis aries)
IC50 (nM): 130
